test: in vitro; type: cell-based; conditions: human
MEASURED PARAMETER: CC50

// each listed compound needs a value for CC50
1. CC(C)c1nc(CCOC(=O)N[C@H](C(=O)N[C@@H](Cc2ccccc2)[C@@H](O)C[C@H](Cc2ccccc2)NC(=O)OCc2cncs2)C(C)C)cs1
2. CC(C)c1nc(CN(C)C(=O)N[C@H](C(=O)N[C@H](Cc2cncs2)C[C@H](O)[C@H](Cc2ccccc2)NC(=O)OCc2cncs2)C(C)C)cs1
3. CC(C)[C@H](NC(=O)OCc1csc(N2CCCC2)n1)C(=O)N[C@@H](Cc1ccccc1)[C@@H](O)C[C@H](Cc1ccccc1)NC(=O)OCc1cncs1

OUTPUT:
1: > 100 µM; 2: 97 µM; 3: > 100 µM

---

For each record, write down the corresponding IC50.
tested on: HIV-13B in MT4 cells; assay: Antiviral activity: inhibition of the cytopathic effect of HIV in MT4 cells; format: cell-based, HIV-1; conditions: Human immunodeficiency virus 1, MT4; read-out: IC50

Some compounds with known IC50 results, for comparison:
# COMPOUND, IC50
data = [
    ("CC(C)c1nc(CN(C)C(=O)N[C@H](C(=O)N[C@@H](Cc2ccccc2)C[C@H](O)[C@H](Cc2ccccc2)NC(=O)OCc2cnc(C(C)C)s2)C(C)C)cs1 [Example 45]", "36 to 40 nM"),
    ("Cc1ncc(COC(=O)N[C@@H](Cc2ccccc2)[C@@H](O)C[C@H](Cc2ccccc2)NC(=O)[C@@H](NC(=O)N(C)Cc2csc(C(C)C)n2)C(C)C)s1 [Example 28]", "110 to 120 nM"),
    ("CC(C)c1nc(CN(C)C(=O)N[C@H](C(=O)N[C@@H](Cc2ccccc2)C[C@H](O)[C@H](Cc2ccccc2)NC(=O)OCc2ccno2)C(C)C)cs1 [Example 26]", "7 to 11 nM"),
]

// each listed compound needs a value for IC50
1. CC(C)c1nc(CCOC(=O)N[C@H](C(=O)N[C@@H](Cc2ccccc2)[C@@H](O)C[C@H](Cc2ccccc2)NC(=O)OCc2cncs2)C(C)C)cs1 [Example 48]
2. CC(C)c1nc(COC(=O)N[C@H](C(=O)N[C@H](Cc2cncs2)C[C@H](O)[C@H](Cc2ccccc2)NC(=O)OCc2cncs2)C(C)C)cs1 [Example 64]
3. CC(C)[C@H](NC(=O)OCc1csc(N2CCCC2)n1)C(=O)N[C@@H](Cc1ccccc1)[C@@H](O)C[C@H](Cc1ccccc1)NC(=O)OCc1cncs1 [Example 14]

OUTPUT:
1: 90 to 110 nM; 2: 100 to 130 nM; 3: 140 to 220 nM

---

For each record, write down the corresponding pIC50.
test system: HIV-13B in MT4 cells; assay: Antiviral activity: inhibition of the cytopathic effect of HIV in MT4 cells; format: cell-based, HIV-1; details: concentration giving 50% inhibition of the cytopathic effect of HIV; HIV-13B in MT4 cells; read-out: IC50
pIC50: −log10 of the molar value.

Some compounds with known pIC50 results, for comparison:
# SAMPLE SMILES, pIC50
records = [
    ("CC(C)c1nc(CN(C)C(=O)N[C@H](C(=O)N[C@@H](Cc2ccccc2)C[C@H](O)[C@H](Cc2ccccc2)NC(=O)OCc2cnco2)C(C)C)co1", "7.32 to 7.66"),
    ("CC(C)c1nc(CC(=O)N[C@H](C(=O)N[C@@H](Cc2ccccc2)C[C@H](O)[C@H](Cc2ccccc2)NC(=O)OCc2cncs2)C(C)C)cs1", "6.57 to 6.82"),
]

// each listed compound needs a value for pIC50
1. CC(C)c1nc(CN(C)C(=O)N[C@@H](C)C(=O)N[C@@H](Cc2ccccc2)C[C@H](O)[C@H](Cc2ccccc2)NC(=O)OCc2cncs2)cs1
2. CC(C)c1nc(CN(C)C(=O)N[C@H](C(=O)N[C@@H](Cc2ccccc2)C[C@H](O)[C@H](Cc2ccccc2)NC(=O)OCc2cnco2)C(C)C)cs1
3. CC(C)[C@H](NC(=O)N(C)Cc1csc(C2CC2)n1)C(=O)N[C@@H](Cc1ccccc1)C[C@H](O)[C@H](Cc1ccccc1)NC(=O)OCc1cncs1

OUTPUT:
1: 7.12 to 7.39; 2: 7.85 to 7.96; 3: 7.31 to 7.35

---

test system: HIV-13B in MT4 cells; assay: Antiviral activity: inhibition of the cytopathic effect of HIV in MT4 cells; assay type: cell-based, HIV-1; settings: Human immunodeficiency virus 1, MT4; read-out: IC50
MEASURED PARAMETER: IC50

Some compounds with known IC50 results, for comparison:
# SAMPLE SMILES, TARGET OR TEST SYSTEM, IC50
data = [
    ("CC(C)[C@H](NC(=O)OCc1csc(N2CCOCC2)n1)C(=O)N[C@@H](Cc1ccccc1)C[C@H](O)[C@H](Cc1ccccc1)NC(=O)OCc1cncs1", "HIV-13B in MT4 cells", "17 to 132 nM"),
    ("CC(C)[C@H](NC(=O)N(C)Cc1csc(N2CCCC2)n1)C(=O)N[C@@H](Cc1ccccc1)C[C@H](O)[C@H](Cc1ccccc1)NC(=O)OCc1ccno1", "HIV-13B in MT4 cells", "81 to 130 nM"),
]

Kindly review the next compound as well.
INPUT: Entry "CC(C)[C@H](NC(=O)OCc1csc(N(C)C)n1)C(=O)N[C@@H](Cc1ccccc1)[C@@H](O)C[C@H](Cc1ccccc1)NC(=O)OCc1cncs1" : reported IC50 = ?
OUTPUT: 54 to 71 nM

---

target: UniProt:P04585; assay: Fluorogenic assay for screening inhibitors of HIV protease; assay type: biochemical; conditions: Inhibitor Concentration 0.5 nanomolar, fluorogenic substrate, pH 4.5, read-out: Percent Inhibition
Structures can show the parent of a compound that is named as a salt.
For each record, write down the corresponding inhibition at 0.0005 µM.
Give bare numbers, in %.

# COMPOUND, inhibition at 0.0005 µM [%]
rows = [
    ("CCN(Cc1csc(C2CCCC2)n1)C(=O)N[C@@H](C)C(=O)N[C@@H](Cc1ccccc1)C[C@H](O)[C@H](Cc1ccccc1)NC(=O)OCc1cncs1", 44),
    ("CC(C)[C@H](NC(=O)N(C)Cc1csc(N2CCCC2)n1)C(=O)N[C@@H](Cc1ccccc1)C[C@H](O)[C@H](Cc1ccccc1)NC(=O)OCc1cncs1", 46),
    ("CC(C)c1nc(CN(C)C(=O)N[C@H](C(=O)N[C@@H](Cc2ccccc2)C[C@H](O)[C@H](Cc2ccccc2)NC(=O)OCc2cnc(C(C)C)s2)C(C)C)cs1", 50),
    ("CC(C)c1nc(COC(=O)N[C@H](C(=O)N[C@@H](Cc2ccccc2)[C@@H](O)C[C@@H](Cc2cncs2)NC(=O)OCc2cncs2)C(C)C)cs1", 70),
]

// each listed compound needs a value for inhibition at 0.0005 µM
1. CC(C)[C@H](NC(=O)N(C)Cc1csc(C2CCCC2)n1)C(=O)N[C@@H](Cc1ccccc1)C[C@H](O)[C@H](Cc1ccccc1)NC(=O)OCc1cncs1
2. CC(C)Cc1nc(CN(C)C(=O)N[C@H](C(=O)N[C@@H](Cc2ccccc2)C[C@H](O)[C@H](Cc2ccccc2)NC(=O)OCc2cncs2)C(C)C)cs1

OUTPUT:
[49, 39]

// each listed compound needs a value for inhibition at 0.0005 µM
1. CC(C)c1nc(CN(NC(=O)OC(C)(C)C)C(=O)N[C@H](C(=O)N[C@@H](Cc2ccccc2)C[C@H](O)[C@H](Cc2ccccc2)NC(=O)OCc2cncs2)C(C)C)cs1
2. CC(C)[C@H](NC(=O)OCc1csc(N2CCCC2)n1)C(=O)N[C@@H](Cc1ccccc1)C[C@H](O)[C@H](Cc1ccccc1)NC(=O)OCc1cncs1
3. CC(C)c1nc(CN(N)C(=O)N[C@H](C(=O)N[C@@H](Cc2ccccc2)C[C@H](O)[C@H](Cc2ccccc2)NC(=O)OCc2cncs2)C(C)C)cs1 [Example 63, Hydrochloride]

OUTPUT:
54
46
61

---

For each record, write down the corresponding IC50.
system: HIV-13B in MT4 cells; experiment: Antiviral activity: inhibition of the cytopathic effect of HIV in MT4 cells; assay type: cell-based, HIV-1; settings: Human immunodeficiency virus 1, MT4; read-out: IC50

# SAMPLE SMILES, MEASURED PARAMETER, READING
data = [
    ("CC(C)[C@H](NC(=O)OCc1csc(N(C)C)n1)C(=O)N[C@@H](Cc1ccccc1)C[C@H](O)[C@H](Cc1ccccc1)NC(=O)OCc1cncs1", "IC50", "80 to 100 nM"),
]

// each listed molecule needs a value for IC50
1. CC(C)[C@H](NC(=O)N(C)Cc1csc(C2CCCC2)n1)C(=O)N[C@@H](Cc1ccccc1)C[C@H](O)[C@H](Cc1ccccc1)NC(=O)OCc1cncs1
2. CC(C)Cc1nc(CN(C)C(=O)N[C@H](C(=O)N[C@@H](Cc2ccccc2)C[C@H](O)[C@H](Cc2ccccc2)NC(=O)OCc2cncs2)C(C)C)cs1

OUTPUT:
["30 to 46 nM", "110 to 130 nM"]
